Please go through the items and note down their cytotoxicity at 70.5 h.
Assay: Human HepG2 cell viability assay in 384 well format
Type: toxicity, cell-based
Parameters: dose 125 nL, time 70.5 hour; concentration not given beside the values
Conditions: HepG2 cells, read-out: Inhibition
Give bare numbers, in %.

// known answers, use as guide
[[record]]
compound = "Cc1ccc(C(=O)N2CCN(CC(C)O)CC2)cc1S(C)(=O)=O (stereo unspecified)"
u = "%"
data_value = -6.11

[[record]]
compound = "CC(C)CNC(=O)c1[nH]nc(C2CC2)c1Br"
u = "%"
data_value = -4.78

[[record]]
compound = "CCOC(=O)CCC(=O)N1CCC(Oc2ccc(C(F)(F)F)cn2)CC1"
u = "%"
data_value = -4.1

[[record]]
compound = "O=C1CC(c2ccccc2)C2(CCN(C(=O)c3ccncc3F)CC2)N1 (stereo unspecified)"
u = "%"
data_value = -5.44

[[record]]
compound = "CCCc1cc(N2CCC(Cc3cccc(C(N)=O)c3)C2)nc(C)n1 (stereo unspecified)"
u = "%"
data_value = -5.44


API: the following record is the query input.
Determine its reported cytotoxicity at 70.5 h: Cc1c[nH]c(CN2CCCCC2CCn2cccn2)c(C)c1=O (stereo unspecified)
-10.2

Values from ChEMBL document CHEMBL3507680
